B1: CPEB3 Ribozyme (parent)
chain: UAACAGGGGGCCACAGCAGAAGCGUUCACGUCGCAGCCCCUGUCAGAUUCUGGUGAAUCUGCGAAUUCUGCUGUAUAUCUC

- Variants of: B1
- experiment: self-cleavage, relative activity (ratio to wild type); higher = more cleavage; in vitro, sequencing
Answer NO if self-cleavage is under 0.4, and YES if it is 0.4 or more.

Consider the following illustrative entries.
query: Determine whether this variant has self-cleavage no lower than 0.4: UAACAGGGGGCCACAGCAGAAGCGUUCACGUCGCAGCCCCUGUCAGAUUCUGGUGAGUCUGCGAAUUCUGCUGAAUAUCUC [A57G U74A]
result: YES

query: Determine whether this variant has self-cleavage no lower than 0.4: UAACAGGGGGCCACUGCAGUAGCGUUCACGUCGCAGCCCCUGUCAGAUUCUGGUGAAUCUGCGAAUUCUGCUGUAUAUCUC [A15U A20U]
result: NO

query: Determine whether this variant has self-cleavage no lower than 0.4: UAACAGGGGGCCACAGCAGAAGCGUUCACGUCGCAGCCCCUGUCAGAUUCUGGUGAAUCACCGAAUUCUGCUGUAUAUCUC [U60A G61C]
result: NO

query: Determine whether this variant has self-cleavage no lower than 0.4: UAACAGGGGGGCACAGCAGAAGCGUUCACGUCGCAGCCCCUGUCAGAUUCUGGUGAAUCUGCGAAUUCCGCUGUAUAUCUC [C11G U69C]
result: NO

query: Determine whether this variant has self-cleavage no lower than 0.4: UAACAGGGGGCCACAGCAGAAGCGUUCACGUCGCAGCCCCUGUGAGAUUCUGGUGAAUCUGCGAAUUCUGCUGAAUAUCUC [C44G U74A]
result: YES

query: Determine whether this variant has self-cleavage no lower than 0.4: UAACAGGGGGCCACAGCGGAAGCGUUCACGUCGCAGCCCCUGUCAGAUUCUGGUGAAUCUGCGAAUUCUGCUGUAAAUCUC [A18G U76A]
result: YES

query: Determine whether this variant has self-cleavage no lower than 0.4: UAACAGGGGGCCACAGCAGAAGCGGUCACGUCGCAGCCCCUGUCAGUUUCUGGUGAAUCUGCGAAUUCUGCUGUAUAUCUC [U25G A47U]
result: NO

query: Determine whether this variant has self-cleavage no lower than 0.4: UAACAGGGGGCCGCAGCAGAAGCGUUCACGUCGCAGCCCCUGUCGGAUUCUGGUGAAUCUGCGAAUUCUGCUGUAUAUCUC [A13G A45G]
result: YES

query: Determine whether this variant has self-cleavage no lower than 0.4: UAACAGGGGGCCACAGCAGAAGCGUUCACGUCGCAGCCCCUGUCAGAUUCUGGUGAAUCUGCGAAUUACGCUGUAUAUCUC [C68A U69C]
result: NO

query: Determine whether this variant has self-cleavage no lower than 0.4: UAACAGGGGGCCACAGCAGAAGCGUUCACGUCGCAGCCCCUGUCAGAUUCUGGUGAAUCUGCGAAUUCCGCUGUACAUCUC [U69C U76C]
result: YES

***
query: Determine whether this variant has self-cleavage no lower than 0.4: CAACAGGGGGCCACAGCAGAAGCGUUCACGUCGCAGCCCCUGUCAGAUACUGGUGAAUCUGCGAAUUCUGCUGUAUAUCUC [U1C U49A]
result: YES

query: Determine whether this variant has self-cleavage no lower than 0.4: UAACAGGGGGCCUCAGCAGAAGCGUUCACGUUGCAGCCCCUGUCAGAUUCUGGUGAAUCUGCGAAUUCUGCUGUAUAUCUC [A13U C32U]
result: NO

query: Determine whether this variant has self-cleavage no lower than 0.4: UAACAGGGGGCCACAGCAGAAGCGUUCACGUCGCAGCCCCUGUCAGAUUCUGGUGAAUCUGCUAAUUCUGCUGUAUAUCUU [G63U C81U]
result: YES

query: Determine whether this variant has self-cleavage no lower than 0.4: UAACAGGGGGCCACAGCAGAAGCGUUCACGUCGCAGCCCCUGUCAGACGCUGGUGAAUCUGCGAAUUCUGCUGUAUAUCUC [U48C U49G]
result: NO

query: Determine whether this variant has self-cleavage no lower than 0.4: UAACAGGGGGCCACAGCGGAAGCGUUCACGUCGCAGCCCCUGUCAGAUUCUGGUGACUCUGCGAAUUCUGCUGUAUAUCUC [A18G A57C]
result: YES
